Cited source for all entries: patent US20250129103A1

Tested Target: KRAS G12C (GMPPNP-loaded) and cRAF (Ras-binding domain) interaction (Homo sapiens (Human), UniProt P01116, C118S/C51S/C80L/G12C)
Sequence (P01116 other isoform, or with tags, fused parts or gaps G12C/C51S/C80L/C118S): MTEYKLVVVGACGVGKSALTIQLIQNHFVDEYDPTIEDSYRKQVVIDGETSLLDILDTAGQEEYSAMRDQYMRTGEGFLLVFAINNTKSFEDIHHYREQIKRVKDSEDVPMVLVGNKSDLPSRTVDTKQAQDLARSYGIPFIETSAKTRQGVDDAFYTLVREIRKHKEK
Test Summary: Inhibition of KRAS G12C and cRAF binding (AlphaScreen)
Condition Context: KRAS G12C loaded with GMPPNP, cRaf RBD, 2 hours preincubation; read-out: Raf-1 RBD K-Ras IC50
Measured Quantity: IC50

- Compound: "N#CC[C@H]1CN(c2nc(OC[C@@]34CCCN3C[C@H](F)C4)nc3c(F)c(-c4cccc5cccc(F)c45)ncc23)CCN1C(=O)/C=C/CN1CC2CCC(C1)O2"
  IC50: "10 to 100 nM"

Which value of IC50 has been reported for `Cc1nsc(/C=C/C(=O)N2CCN(c3nc(OCC45CCCN4CCC5)nc4c(F)c(-c5cccc6ccc(F)c(Cl)c56)ncc34)C[C@@H]2CC#N)n1` in the records? < 10 nM

Also need `N#CC[C@H]1CN(c2nc(OC[C@@]34CCCN3C[C@H](F)C4)nc3c(F)c(-c4cccc5cccc(Cl)c45)ncc23)CCN1C(=O)/C=C/CN1CCn2cnnc2C1` , thanks. 100 to 500 nM

Also need `N#CC[C@H]1CN(c2nc(OC[C@@]34CCCN3C[C@H](F)C4)nc3c(F)c(-c4cccc5cccc(Cl)c45)ncc23)CCN1C(=O)/C=C/c1nc(C(F)F)no1` , thanks. < 10 nM

Also need `N#CC[C@H]1CN(c2nc(OCC34CCCN3CCC4)nc3c2CCN(c2cccc4ccc(F)c(Cl)c24)C3)CCN1C(=O)/C=C/CN1CCOCC1` , thanks. < 10 nM

Also need `N#CC[C@H]1CN(c2nc(OC[C@@]34CCCN3C[C@H](F)C4)nc3c(F)c(-c4cccc(Cl)c4C4CC4)ncc23)CCN1C(=O)/C=C/CN1CC2CC(C1)O2` , thanks. < 10 nM

Also need N#CC[C@H]1CN(c2nc(OC[C@@]34CCCN3C[C@H](F)C4)nc3c(F)c(-c4cccc5ccc(F)c(F)c45)ncc23)CCN1C(=O)/C=C/CN1CCn2ccnc2C1 [Compound 264] , thanks. 100 to 500 nM

Also need `CC(C)c1noc(/C=C/C(=O)N2CCN(c3nc(OCC45CCCN4CCC5)nc4c(F)c(-c5cccc6cccc(Cl)c56)ncc34)C[C@@H]2CC#N)n1` , thanks. 100 to 500 nM
